Target: UniProt P11473
Sequence (P11473 whole entry): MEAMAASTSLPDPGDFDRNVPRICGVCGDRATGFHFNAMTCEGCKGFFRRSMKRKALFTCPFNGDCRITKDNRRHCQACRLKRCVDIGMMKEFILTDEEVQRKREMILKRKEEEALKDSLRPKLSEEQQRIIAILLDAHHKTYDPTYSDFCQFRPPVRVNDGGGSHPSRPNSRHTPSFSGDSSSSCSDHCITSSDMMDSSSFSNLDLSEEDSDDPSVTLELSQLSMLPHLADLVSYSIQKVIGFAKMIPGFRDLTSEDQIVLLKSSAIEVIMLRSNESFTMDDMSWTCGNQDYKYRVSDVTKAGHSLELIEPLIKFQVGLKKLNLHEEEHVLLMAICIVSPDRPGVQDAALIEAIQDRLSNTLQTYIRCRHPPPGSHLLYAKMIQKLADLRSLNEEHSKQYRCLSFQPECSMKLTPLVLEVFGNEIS
Test: Antagonist activity assessed by differentiation of 1,25-D3-induced HL60 cells
Assay type: functional, cell-based
Conditions: hl-60
Measurement Type: IC50

Answered examples (5):
| Compound | IC50 |
| --- | --- |
| C=C1/C(=C\C=C2/CCC[C@@]3(C)C2CC[C@@H]3[C@H](C)C[C@@H]2C[C@@](C)(O)C(=O)N2Cc2ccccc2)C[C@@H](O)C[C@@H]1O (stereo partly specified) | Not Active |
| C=C1/C(=C\C=C2/CCC[C@@]3(C)C2CC[C@@H]3[C@H](C)C[C@@H]2C[C@](C)(O)C(=O)N2CCCCc2ccccc2)C[C@@H](O)C[C@@H]1O (stereo partly specified) | Not Active |
| C=C1/C(=C\C=C2/CCC[C@@]3(C)C2CC[C@@H]3[C@H](C)C[C@@H]2C[C@@](C)(O)C(=O)N2CCCCc2ccccc2)C[C@@H](O)C[C@@H]1O (stereo partly specified) | Not Active |
| C=C1/C(=C\C=C2/CCC[C@@]3(C)C2CC[C@@H]3[C@H](C)C[C@H]2C[C@@](C)(O)C(=O)N2CCCCc2ccccc2)C[C@@H](O)C[C@@H]1O (stereo partly specified) | Not Active |
| C=C1/C(=C\C=C2/CCC[C@@]3(C)C2CC[C@@H]3[C@H](C)C[C@@H]2C[C@](C)(O)C(=O)N2C(C)C)C[C@@H](O)C[C@@H]1O (stereo partly specified) | Not Active |

Query compound follows.
Prompt: For the compound C=C1/C(=C\C=C2/CCC[C@@]3(C)C2CC[C@@H]3[C@H](C)C[C@@H]2C[C@@](C)(O)C(=O)N2CCCc2ccccc2)C[C@@H](O)C[C@@H]1O (stereo partly specified) , what IC50 is on record?
Response: Not Active

---

Biological target: Vitamin D3 receptor (Gallus gallus) (UniProt O42392)
Sequence (whole entry): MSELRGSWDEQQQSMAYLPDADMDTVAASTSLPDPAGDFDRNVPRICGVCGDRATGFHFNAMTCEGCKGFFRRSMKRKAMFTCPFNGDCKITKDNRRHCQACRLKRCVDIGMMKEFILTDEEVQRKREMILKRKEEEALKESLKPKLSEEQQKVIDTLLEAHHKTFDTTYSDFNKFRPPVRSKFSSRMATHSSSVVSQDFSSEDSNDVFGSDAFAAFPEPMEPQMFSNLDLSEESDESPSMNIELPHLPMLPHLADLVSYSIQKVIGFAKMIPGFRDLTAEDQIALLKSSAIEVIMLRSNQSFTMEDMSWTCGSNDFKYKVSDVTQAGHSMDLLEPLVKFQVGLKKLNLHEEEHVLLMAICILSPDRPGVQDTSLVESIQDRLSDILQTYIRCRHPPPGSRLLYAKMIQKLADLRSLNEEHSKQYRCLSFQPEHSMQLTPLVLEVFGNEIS
Assay: Binding affinity to chick intestinal VDR relative to 1,25-D3
// boundary case: Activity equal to 0.3% maps to False; strictly smaller maps to True

# example entries with known answers
| Compound | Class Assignment |
| --- | --- |
| C=C1/C(=C\C=C2/CCC[C@@]3(C)C2CC[C@@H]3[C@H](C)C[C@H]2C[C@](C)(O)C(=O)N2CCc2ccccc2)C[C@@H](O)C[C@@H]1O (some centres undefined) | False |
| C=C1/C(=C\C=C2/CCC[C@@]3(C)C2CC[C@@H]3[C@H](C)C[C@H]2C[C@@](C)(O)C(=O)N2CCc2ccccc2)C[C@@H](O)C[C@@H]1O (some centres undefined) | False |
| C=C1/C(=C\C=C2/CCC[C@@]3(C)C2CC[C@@H]3[C@H](C)C[C@@H]2C[C@@](C)(O)C(=O)N2Cc2ccccc2)C[C@@H](O)C[C@@H]1O (some centres undefined) | True |

Prompt: Activity strictly < 0.3% for this compound? C=C1/C(=C\C=C2/CCC[C@@]3(C)C2CC[C@@H]3[C@H](C)C[C@H]2C[C@@](C)(O)C(=O)N2Cc2ccc(OC)cc2)C[C@@H](O)C[C@@H]1O (some centres undefined)
Response: True

---

Overview of reported Activity across a group of molecules:
Molecular target: Vitamin D3 receptor (Gallus gallus) (UniProt O42392)
Experiment: Binding affinity to chick intestinal VDR relative to 1,25-D3
Field format: number, assumed %, no unit text.

A selection of reference data follows.
| Molecule | Units | Activity |
| --- | --- | --- |
| C=C1/C(=C\C=C2/CCC[C@@]3(C)C2CC[C@@H]3[C@H](C)C[C@@H]2C[C@](C)(O)C(=O)N2CCc2ccccc2)C[C@@H](O)C[C@@H]1O (stereo not given in full) | % | 0.19 |
| C=C1/C(=C\C=C2/CCC[C@@]3(C)C2CC[C@@H]3[C@H](C)C[C@@H]2C[C@](C)(O)C(=O)N2Cc2ccc(OC)cc2)C[C@@H](O)C[C@@H]1O (stereo not given in full) | % | 0.1 |
| C=C1/C(=C\C=C2/CCC[C@@]3(C)C2CC[C@@H]3[C@H](C)C[C@H]2C[C@@](C)(O)C(=O)N2CCCCc2ccccc2)C[C@@H](O)C[C@@H]1O (stereo not given in full) | % | 0.09 |

Prompt: Which value of Activity has been reported for C=C1/C(=C\C=C2/CCC[C@@]3(C)C2CC[C@@H]3[C@H](C)C[C@@H]2C[C@@](C)(O)C(=O)N2CCc2ccccc2)C[C@@H](O)C[C@@H]1O (stereo not given in full) in the records?
Response: 0.51

Prompt: Param item: C=C1/C(=C\C=C2/CCC[C@@]3(C)C2CC[C@@H]3[C@H](C)C[C@H]2C[C@](C)(O)C(=O)N2C(C)C)C[C@@H](O)C[C@@H]1O (stereo not given in full)
Response: 1.52

Prompt: Do the same for C=C1/C(=C\C=C2/CCC[C@@]3(C)C2CC[C@@H]3[C@H](C)C[C@@H]2C[C@@](C)(O)C(=O)N2Cc2ccc(OC)cc2)C[C@@H](O)C[C@@H]1O (stereo not given in full) please
Response: 0.3

Prompt: What do you get for C=C1/C(=C\C=C2/CCC[C@@]3(C)C2CC[C@@H]3[C@H](C)C[C@@H]2C[C@@](C)(O)C(=O)N2CCCc2ccccc2)C[C@@H](O)C[C@@H]1O (stereo not given in full) ?
Response: 0.19

Prompt: Query C=C1/C(=C\C=C2/CCC[C@@]3(C)C2CC[C@@H]3[C@H](C)C[C@@H]2C[C@@](C)(O)C(=O)N2CCCCc2ccccc2)C[C@@H](O)C[C@@H]1O (stereo not given in full) next
Response: 0.3

---

Target: Vitamin D3 receptor (Gallus gallus)
Assay: Binding affinity to chick intestinal VDR relative to 1,25-D3
So basically: Activity at 0.2% or higher? That is met. Lower than 0.2%? That is not met.

Observe how each entry below is paired with its result.
| Molecule | Target | Class Assignment |
| --- | --- | --- |
| C=C1/C(=C\C=C2/CCC[C@@]3(C)C2CC[C@@H]3[C@H](C)C[C@@H]2C[C@](C)(O)C(=O)N2CCCc2ccccc2)C[C@@H](O)C[C@@H]1O (some centres not stated) | Vitamin D3 receptor (Gallus gallus) | not met |
| C=C1/C(=C\C=C2/CCC[C@@]3(C)C2CC[C@@H]3[C@H](C)C[C@H]2C[C@](C)(O)C(=O)N2CCCCc2ccccc2)C[C@@H](O)C[C@@H]1O (some centres not stated) | Vitamin D3 receptor (Gallus gallus) | met |
| C=C1/C(=C\C=C2/CCC[C@@]3(C)C2CC[C@@H]3[C@H](C)C[C@H]2C[C@@](C)(O)C(=O)N2CCCc2ccccc2)C[C@@H](O)C[C@@H]1O (some centres not stated) | Vitamin D3 receptor (Gallus gallus) | not met |
| C=C1/C(=C\C=C2/CCC[C@@]3(C)C2CC[C@@H]3[C@H](C)C[C@@H]2C[C@](C)(O)C(=O)N2CCCCc2ccccc2)C[C@@H](O)C[C@@H]1O (some centres not stated) | Vitamin D3 receptor (Gallus gallus) | not met |
| C=C1/C(=C\C=C2/CCC[C@@]3(C)C2CC[C@@H]3[C@H](C)C[C@H]2C[C@@](C)(O)C(=O)N2Cc2ccccc2)C[C@@H](O)C[C@@H]1O (some centres not stated) | Vitamin D3 receptor (Gallus gallus) | not met |
| C=C1/C(=C\C=C2/CCC[C@@]3(C)C2CC[C@@H]3[C@H](C)C[C@@H]2C[C@](C)(O)C(=O)N2Cc2ccccc2)C[C@@H](O)C[C@@H]1O (some centres not stated) | Vitamin D3 receptor (Gallus gallus) | met |
| C=C1/C(=C\C=C2/CCC[C@@]3(C)C2CC[C@@H]3[C@H](C)C[C@H]2C[C@](C)(O)C(=O)N2CCCc2ccccc2)C[C@@H](O)C[C@@H]1O (some centres not stated) | Vitamin D3 receptor (Gallus gallus) | met |
| C=C1/C(=C\C=C2/CCC[C@@]3(C)C2CC[C@@H]3[C@H](C)C[C@@H]2C[C@](C)(O)C(=O)N2C(C)C)C[C@@H](O)C[C@@H]1O (some centres not stated) | Vitamin D3 receptor (Gallus gallus) | not met |
| C=C1/C(=C\C=C2/CCC[C@@]3(C)C2CC[C@@H]3[C@H](C)C[C@H]2C[C@@](C)(O)C(=O)N2C(C)C)C[C@@H](O)C[C@@H]1O (some centres not stated) | Vitamin D3 receptor (Gallus gallus) | not met |
| C=C1/C(=C\C=C2/CCC[C@@]3(C)C2CC[C@@H]3[C@H](C)C[C@@H]2C[C@@](C)(O)C(=O)N2C(C)C)C[C@@H](O)C[C@@H]1O (some centres not stated) | Vitamin D3 receptor (Gallus gallus) | not met |

Prompt: Hi, just wondering whether C=C1/C(=C\C=C2/CCC[C@@]3(C)C2CC[C@@H]3[C@H](C)C[C@H]2C[C@](C)(O)C(=O)N2Cc2ccc(OC)cc2)C[C@@H](O)C[C@@H]1O (some centres not stated) shows Activity of 0.2% or higher.
Response: met

Prompt: Also C=C1/C(=C\C=C2/CCC[C@@]3(C)C2CC[C@@H]3[C@H](C)C[C@H]2C[C@](C)(O)C(=O)N2Cc2ccccc2)C[C@@H](O)C[C@@H]1O (some centres not stated) , if possible.
Response: met

Where these numbers come from: ChEMBL document CHEMBL1146092
